The following compounds have recorded Ki on Coagulation factor X (Homo sapiens).
Sequence (P00742 41-179 limits assumed): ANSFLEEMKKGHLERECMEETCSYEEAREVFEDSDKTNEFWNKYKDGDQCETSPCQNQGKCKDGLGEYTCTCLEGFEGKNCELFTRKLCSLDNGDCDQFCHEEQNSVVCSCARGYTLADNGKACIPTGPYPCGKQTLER
Sequence (P00742 235-488 limits assumed): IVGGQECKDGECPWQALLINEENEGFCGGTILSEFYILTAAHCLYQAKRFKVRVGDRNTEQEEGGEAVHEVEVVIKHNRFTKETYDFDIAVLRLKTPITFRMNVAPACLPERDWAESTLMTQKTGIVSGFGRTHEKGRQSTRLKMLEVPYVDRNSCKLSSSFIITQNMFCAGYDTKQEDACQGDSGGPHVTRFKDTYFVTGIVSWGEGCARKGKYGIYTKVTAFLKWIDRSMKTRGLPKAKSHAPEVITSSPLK
Write the number in nM without appending the unit.

These recorded examples may help you get a feel for the data.
| compound | display_unit | Ki |
| --- | --- | --- |
| COC(=O)Cn1nc(C)c(NC(=O)OCC(Oc2cccc3sc(C(=N)N)cc23)c2ccccc2)c1C (stereo not given) | nM | 1300 |
| N=C(N)c1cc2c(OC(C(=O)NCc3ccccc3)c3ccccc3)cccc2s1 (stereo not given) | nM | 950 |
| N=C(N)c1cc2c(OC(COC(=O)NCc3ccccc3)c3ccccc3)cccc2s1 (stereo not given) | nM | 830 |
| N=C(N)c1cc2c(OC(COC(=O)Nc3ccccc3CN)c3ccccc3)cccc2s1 (stereo not given) | nM | 825 |

Continue with the compound presented below.
// COc1ccc(NC(=O)OCC(Oc2cccc3sc(C(=N)N)cc23)c2ccccc2)cc1 (stereo not given) : Ki value = 800
